The reported measurements were obtained from the nanobody polyreactivity screen of Harvey et al. (2022).

Assay: yeast display, Sf9 membrane polyspecificity reagent, FACS + sequencing; frameworks hold sequencing errors
RECORDED METRIC: polyreactivity (PSR sort gate)

Recorded polyreactivity (PSR sort gate), per entry:
QVQLVESGGGLVQAGGSLRLSCAASGSIFNLYAMGWYRQAPGKERELVAAISRSGGSTYYADSVKGRFTISRDNAKNTVYLQMNSLKPEDTAVYYCAARYNWRYDIFDYWGQGTQVTVSS :: high polyreactivity
QVQLVESGGGIVQAGGSLRLSCAASGIIIQYYAMGWYRQAPGKERELVAAISWSGGSTYYADSVKGRFTISRDNAKNTVYLQMNSLKPEDTAVYYCAARSRSYWPYEGDYWGQGTQVTVSS :: low polyreactivity
QVQLVESGGGLVQAGGSLRLSCAASGGIFGINAMGWYRQAPGKEREFVAAITASGGTTYYADSVKGRFTISRDNAKNTVYLQMNSLKPEDTAVYYCAKRYRSYDYVWYEYWGQGTQVTVSS :: high polyreactivity
QVQLVESGGGLVQAGGSLRLSCAASGRIFLQYAMGWYRQAPGKERELVAGISLRGGSTYYADSVKGRFTISRDNAKNTVYLQMNSLKPEDTAVYYCAADVIVTVETNTSGPSFTEYDYWGQGTQVTVSS :: low polyreactivity
QVQLVESGGGLVQAGGSLRLSCAASGSTFVIYAMGLYTQAPGKERELVAAISRRTGSTYYADSVKGRFTISRYNAKNTVYLQMNSLKPEDTAVYYCAADYRYYTKYYGYLTYYYWGQGTQVTVSS :: high polyreactivity
QVQLVESGGGLVQAGGSLRLSCAASGSSFGYYAMGWYRPAPGKERELVAAITRRGVNTYYADSVKGRFTISRDNAKNTVYLQMNSLKPEDTAVYYCAATWWQYAQGLHRYDYWGQGTQVTVSS :: high polyreactivity

Ask | Entry `QVQLVESGGGLVQAGGSLRLSCAASGSTLGDNGMGWYIQAPGKERELVAAITIGGSTTYADSVKGRFTISRDNAKNTVYLQMNSLKPEDTAVYYCAADQQARDQYSDWTEYDYWGQGTQVNVSS` : reported polyreactivity (PSR sort gate) = ?
Reply | low polyreactivity

Ask | Let us now turn to `QVQLVESGGGLVQAGGSLRLSCAASGSTFRCYAMGGYRQATGKERELVAAIRSAGSTDYADSVKGRFTISRDNAKITVYLQMNILKQEDTAVYYCAAYFRYRSSRYGYWGQGTQVTVSS`
Reply | high polyreactivity

Ask | Consider next the sequence `QVQLEESGGRLVQAGGSLRLSCAASGRTFDGNTMGWYRQAPGKERELVAAITYSGTSTYYADSVKGRFTISRDNAKNTVDVQMNSLKPEDTAVYYCNKPRYYSTYRRYYWGQGTQVTVSS` in the same way.
Reply | high polyreactivity

Ask | Now consider `QVQLVESGGGLVQAGGSLRLICAASGFIFDSYAMGWYRQAPGKARELVAAISVNGGTTYYADSVKGRFTISRDNAKNTVYLQMISLKPEDTAVYFCNADLYYDVGQPMDYWGQGTQVTVSS` and answer again.
Reply | low polyreactivity

Ask | Same again, this time with `QVQLVESGGGLVQAGGSLRLRCAASGSIFPLYAMGWYRQAPGKERELVAAITSSGGRTYYADSVKGRFTISRDNAKNTVYLQMNSLKPEDTAVYYCNAGYYVRRDYDYWGQGTQVTVSS`
Reply | low polyreactivity

====

Experiment: yeast display, Sf9 membrane polyspecificity reagent, FACS + sequencing; frameworks hold sequencing errors
RECORDED METRIC: polyreactivity (PSR sort gate)

Sample records with polyreactivity (PSR sort gate):
QVQLVESGGGLVQAGGSLRLSCAASGYTFNRNAMGWYIQAPGKERELVASITRRGGSTYYADSVKGRFTISRDNAKNTVYLQMNSLKPEDTAVYYCAVESIRTGDYWGQGTQVTVSS :: high polyreactivity
QVLLQESGGGLVQAGGSLRLGCAASGTISPAYYMGRNHQAPGKEREFVAAITYGTNTYYADSVKGRFTISRDNAKNTVYLQMNSLKPEDTAVYYCSATAGYNGAHDYWGQGTQVTVSS :: low polyreactivity
QVQLVESGGGLVQAGGSLRLSCAASGSIFSFYAMGWYRQAPGKERELVATISSGDNTNYADSVKGRFTISRDNAKNTVYLQMNSLKPEDTAVYYCAADAWGVDREYDYWGQGTQVTVSS :: low polyreactivity
QVQLVESGGGLVQAGGSLRFSCAASGSTFKRYTMGWYRQAPGKERELVAAISTSSGSTYYADSVKGRFTISRDNAKNSVYLQMHSLKPEDTAVYYCAAVRLRQTYPKYNYWGQGTQVTVSS :: high polyreactivity
QVQLVESGGGLVQAGGSLSLSCAASGFTFGSNDMGWYRQAPGKERELVAAIDGSGDTYYADSVKGRFTISRDNAKNTVYLQMNSLKPEDTAVYYCARDDNPIYSGVTYDYWGQGTQVTVSS :: low polyreactivity

Now let's try a different one.
Ask | Could you share which polyreactivity (PSR sort gate) value was measured for `QLQLEESGGGLVQAGGSLRLSCAAYGNILGYNAMGWYRQAPGKERELVAAISDNADSTYYADSVKGRFTISRDNAKNTVYLQMNSLKPEDPAVYYCAADWVLRTWLFWYTKYDYWGQGTQVTVSS` ?
Reply | low polyreactivity

====

Assay: yeast display, Sf9 membrane polyspecificity reagent, FACS + sequencing; frameworks hold sequencing errors
RECORDED METRIC: polyreactivity (PSR sort gate)

Below, each entry is followed by its recorded polyreactivity (PSR sort gate) result.
QVQLVESGGGLVQAGGRIRLSCAASGSTYGLNAMGWYRQDPGNEREMVAAITFISGSTNYADSVKGRFSISRDNAKNTVYLQMNSLKPEDTAVYYCAGDSVYYAGYDDDYWGLGTQVTVSS :: low polyreactivity
HVQLVESGGGLVQAGGSLRLSCAASGRTLRRNAMGWYRQAPGKERELVAAINYSGANTYYADSVKGRFTISRDNAKNTVYLQMNSLKPEDTAVYYCAAASTSYRGISGGDYWGQGTQVTVSS :: high polyreactivity
QVQLVESGGGLVQAGGSLRLSCAASGSIQGKNAMRWYRPAPGKERELVAAISTRGGSTYYADSVKGRFTISRDNAKNSVYFQMNSLKPEDTAVYYCNARWREYKAKWGSRYDYWGQGTQVTVSS :: high polyreactivity
QVQLVESGGGLVQAGGSLRLSCAASGFTFTYYAMGWYRQAPGKERELVAAITKSGGSTYYADSVKGRFTISRDNAKNTVYLQMNSLKPEDTAVYYCAADTRYGRERYYWGQGTQVTVSS :: high polyreactivity

Ask | Return reported polyreactivity (PSR sort gate); argument: `QVQLVESCGGLVQAGGSLRLSCAASGRTFRYYAMGWYRQAPWKERELVAAIRRGGSTTYADSVKGRFTISRDNAKNTVYLQMNSLKPEDTAVYYCAARYPGTRGDGYWGQGTQVTVSS`
Reply | high polyreactivity

Ask | Same question for `QVQLVESGGGLVQAGGSLRLSCAASGFTFGDYAMGWYRQAPGKERELVAAISWSGGRTSYADSVKGRFTISRDNAKNTVYLQMNSLKPEDTAVYYCAARYRYAYTSFPFYYWGQGTQVTVSS` please.
Reply | high polyreactivity

Ask | Try the sequence `QVQLVESGGGLVQAGGSLGLSCAASGFTFRNYAMGCYRQAPGKERELVATLSASSGSTYYADSVKGRFTISRDNAKNTVYLQMNSLKPEDTAVYYCAAGLSGYSRKMYYWGQGTQVTESS`
Reply | high polyreactivity

====

Experiment: yeast display, Sf9 membrane polyspecificity reagent, FACS + sequencing; frameworks hold sequencing errors
RECORDED METRIC: polyreactivity (PSR sort gate)

Examples from the recorded data:
QVQLVESGGGLVQAGGSLRLSCAASGRTFCLNAMGWYRQAPGKERELVAAISKSDDSTYYADSVKGRFTISRDNAKNTVYLQMNSLKPEDTAVYYCNADYYGWWYDTDYIGGYDYDYWGQGTQVTVSS :: low polyreactivity
QVQLVESGGGLVQAGGSLRLSCAASGGSFGMNAMGWYRKAPGKERELVASINANGGSTYYADSVKGRFTISRDNAKNTVYLQMNSLKPEDTAVYYCAVVVTRYNHNEYNSWGQGTQVTVSS :: low polyreactivity
QVQLVESGGGLVQAGGSLRLSCAASGFTLGRYAKGWYRQAPGKERELVAAISSGGRTYYADSVKGRFTISRDNAKNTVYLQMNSLKPEDTAVYYCAADPRYISYDYWGQGTQVTVSS :: low polyreactivity
QVQLVESGGGLVQAGGSLRLSCAASGSTFRPYAMGWYRQAPGKERELVAAISWSGGRTYYADSVKGRFTISRDNAKNNVYLQMNSLKPEDTAVYYCNRAGRQPKNTYDYWGQGTQVTVSS :: high polyreactivity
QVQLVESGGGLVQAGGSLRLSCAASGITFTFNAMGWYRQAPGKDRELVAAMTWSGGSTFYADSVKGRFTISRDNAKNTVYLQMNSLKPEDSAVYYCARDTELYVRWLDYWGQGTQVTVSS :: low polyreactivity
QVHLVESGGGLVQAGGSLRLSCDASGSIFPVNAMGWYRQAPGKERELVATITWRGGRTYYADSVKGRFTISRDNAKNTVYLQMNSLKPEDTAVYYCAARLLYRHFGYWGQGTQVTVSS :: high polyreactivity
QVQLVESGGGLVQAGGSLRLSCAASGRIFPYCAMGWYRQAPGKEREFVAAITSSGGSTYYADSVKGRFTISRDNAKNTVYLQMNSLKREDTAVYFCFAVRHYALYAGRPYDYWGQGTEVTVSS :: low polyreactivity
QVQLVESGGGLVQAGGSLGLSCAASGSIFTNYAMGWYRQAPGKERELVAAISVGGGRTYYADSVKGRFTISRDNAKNTVDLQMNSLKPEDTAVYYCAARYPFGSLGRYGYWGQGTQVTVSS :: high polyreactivity

Ask | Quick one: polyreactivity (PSR sort gate) of `QVQLVESGGGLVQAGGSLRLSCAASGRIFNGNAMGWYRQAPGKERELVAAISTSGGRTYYADSVKGRFTISRDNAKNTVYLQMNSLKPEDTAVYYCAARYFRRDYIDYDYWGQGTQVTVSS` ?
Reply | low polyreactivity

Ask | Another sequence to look at: `QVKLVDSGGGLVQAGGSLRLSCAASGFIFYSYDMGWYRQAPGKERELVATITSGDDTYYADSVKGRFTISRDNAKNTVYLQMNSQKPEDTAVGYWGQGTQVTVSS`
Reply | low polyreactivity
